- Tested on: KM12 colon
- assayExplanation: NCI-60 one-dose screen, 48 h (100 = growth as untreated, 0 = no growth, -100 = all killed)
- assayContext: 10 µM
The panel holds about 83,000 compounds, 20% with a hit somewhere; the sample as a whole holds those more often.
// values below are reported growth
Response body: numeric value in %, unit text excluded.

Before answering, review these 2 worked examples.
{"compound": "Cc1ccc(/C(C#N)=C/c2ccc3c(c2)OCO3)cc1", "unitTag": "%", "growth": 26.1}
{"compound": "COc1cc(CCN=Cc2ccccc2O)c([N+](=O)[O-])cc1OC", "unitTag": "%", "growth": 107}

Recorded growth (compound CCOC(=O)C1OC1c1ccccc1 (centres undefined) ): 100

Recorded growth (compound CCN(CC)CCCC(C)Nc1ccnc(/C=C/c2ccc(Cl)cc2)c1 (centres undefined) ): 25.3

Recorded growth (compound COC(=O)c1[nH]c(=O)c(C#N)c(C(=O)OC)c1C(=O)c1ccccc1 ): 102

Recorded growth (compound O=S(=O)(O)CC(O)CN1CCN(CCO)CC1 (centres undefined) ): 107

Recorded growth (compound C=CCNc1nnc(C)s1 ): 101

Recorded growth (compound S=C(Nc1ccccc1)N1CCCCC1 ): 105

Recorded growth (compound COCCCNC(=O)c1nnn2c1nc(N)c1cc(Cl)ccc12 ): 50.2
